Assignment: determine reported Activity for the given compounds.
- TARGET_OR_TEST_SYSTEM: Protein cereblon/Androgen receptor (Homo sapiens, UniProt P10275+Q96SW2)
- Sequence (P10275 whole entry, looked up): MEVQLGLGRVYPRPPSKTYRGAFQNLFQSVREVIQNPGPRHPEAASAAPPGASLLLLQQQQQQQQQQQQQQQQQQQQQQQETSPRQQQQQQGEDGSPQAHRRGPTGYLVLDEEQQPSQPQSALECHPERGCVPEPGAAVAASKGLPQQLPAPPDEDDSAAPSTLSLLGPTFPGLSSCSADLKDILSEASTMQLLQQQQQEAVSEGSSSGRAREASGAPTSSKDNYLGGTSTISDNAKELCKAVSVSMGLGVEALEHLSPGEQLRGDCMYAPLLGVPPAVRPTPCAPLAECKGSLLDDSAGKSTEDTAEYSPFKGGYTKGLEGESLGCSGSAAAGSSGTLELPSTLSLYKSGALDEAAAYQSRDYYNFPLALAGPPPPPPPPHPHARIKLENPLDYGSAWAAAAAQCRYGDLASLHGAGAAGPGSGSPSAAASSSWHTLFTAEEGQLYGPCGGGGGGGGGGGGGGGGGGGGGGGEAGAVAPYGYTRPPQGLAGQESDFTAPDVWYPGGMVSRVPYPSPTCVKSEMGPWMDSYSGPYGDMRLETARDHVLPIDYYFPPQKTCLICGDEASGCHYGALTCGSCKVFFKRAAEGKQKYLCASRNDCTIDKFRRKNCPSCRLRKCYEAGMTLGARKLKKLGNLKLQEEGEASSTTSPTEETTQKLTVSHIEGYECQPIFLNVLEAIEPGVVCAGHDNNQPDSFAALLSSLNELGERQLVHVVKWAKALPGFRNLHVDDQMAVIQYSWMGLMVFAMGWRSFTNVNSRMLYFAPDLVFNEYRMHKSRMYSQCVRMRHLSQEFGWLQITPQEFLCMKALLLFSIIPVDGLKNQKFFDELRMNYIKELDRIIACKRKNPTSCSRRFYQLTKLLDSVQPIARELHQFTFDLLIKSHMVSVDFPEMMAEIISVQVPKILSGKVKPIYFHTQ
- Sequence (Q96SW2 whole entry, looked up): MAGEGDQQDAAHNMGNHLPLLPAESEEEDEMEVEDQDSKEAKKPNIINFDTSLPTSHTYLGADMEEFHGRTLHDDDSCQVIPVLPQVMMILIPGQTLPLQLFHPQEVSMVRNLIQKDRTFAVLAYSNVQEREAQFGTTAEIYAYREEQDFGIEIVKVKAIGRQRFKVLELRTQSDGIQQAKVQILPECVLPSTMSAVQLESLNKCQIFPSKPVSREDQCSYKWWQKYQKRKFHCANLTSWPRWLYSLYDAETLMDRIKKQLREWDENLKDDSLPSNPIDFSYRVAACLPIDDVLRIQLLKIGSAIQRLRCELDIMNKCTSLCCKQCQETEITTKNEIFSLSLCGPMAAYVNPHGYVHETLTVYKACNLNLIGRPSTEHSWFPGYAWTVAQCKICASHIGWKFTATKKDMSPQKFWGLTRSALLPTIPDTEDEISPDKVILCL
- MEASUREMENT_PROTOCOL: Protac activity at CRBN/AR in human LNCaP cells assessed as AR degradation at 10 uM by Western blotting analysis relative to control
- Type: cell-based
Just the number please, in %, no unit attached.

// query Fill in: Activity of CC1(C)[C@H](NC(=O)c2ccc(N3CCN(CCC4CCN(C(=O)CNc5ccc6nnn(C7CCC(=O)NC7=O)c(=O)c6c5)CC4)CC3)cc2)C(C)(C)[C@H]1Oc1ccc(C#N)c(Cl)c1 (stereo partly drawn) is ___
// result 83

// query Which Activity value belongs to CC1(C)[C@H](NC(=O)c2ccc(N3CCN(C4CC5(CCN(C(=O)COc6ccc7nnn(C8CCC(=O)NC8=O)c(=O)c7c6)CC5)C4)CC3)cc2)C(C)(C)[C@H]1Oc1ccc(C#N)c(Cl)c1 (stereo partly drawn) ?
// result 79

// query What value of Activity has been reported for the following compound? CC1(C)[C@H](NC(=O)c2ccc(N3CCN(C4CC5(CCN(C(=O)C6CCN(c7ccc8nnn(C9CCC(=O)NC9=O)c(=O)c8c7)CC6)CC5)C4)CC3)cc2)C(C)(C)[C@H]1Oc1ccc(C#N)c(Cl)c1 (stereo partly drawn)
// result 95
